Target: mouse TMEM16A mutant I636A (Mus musculus, UniProt Q8BHY3, I636A)
Construct: expressed in transfected cells; host or cells: HEK293T
Sequence (Q8BHY3 1-960 I636A): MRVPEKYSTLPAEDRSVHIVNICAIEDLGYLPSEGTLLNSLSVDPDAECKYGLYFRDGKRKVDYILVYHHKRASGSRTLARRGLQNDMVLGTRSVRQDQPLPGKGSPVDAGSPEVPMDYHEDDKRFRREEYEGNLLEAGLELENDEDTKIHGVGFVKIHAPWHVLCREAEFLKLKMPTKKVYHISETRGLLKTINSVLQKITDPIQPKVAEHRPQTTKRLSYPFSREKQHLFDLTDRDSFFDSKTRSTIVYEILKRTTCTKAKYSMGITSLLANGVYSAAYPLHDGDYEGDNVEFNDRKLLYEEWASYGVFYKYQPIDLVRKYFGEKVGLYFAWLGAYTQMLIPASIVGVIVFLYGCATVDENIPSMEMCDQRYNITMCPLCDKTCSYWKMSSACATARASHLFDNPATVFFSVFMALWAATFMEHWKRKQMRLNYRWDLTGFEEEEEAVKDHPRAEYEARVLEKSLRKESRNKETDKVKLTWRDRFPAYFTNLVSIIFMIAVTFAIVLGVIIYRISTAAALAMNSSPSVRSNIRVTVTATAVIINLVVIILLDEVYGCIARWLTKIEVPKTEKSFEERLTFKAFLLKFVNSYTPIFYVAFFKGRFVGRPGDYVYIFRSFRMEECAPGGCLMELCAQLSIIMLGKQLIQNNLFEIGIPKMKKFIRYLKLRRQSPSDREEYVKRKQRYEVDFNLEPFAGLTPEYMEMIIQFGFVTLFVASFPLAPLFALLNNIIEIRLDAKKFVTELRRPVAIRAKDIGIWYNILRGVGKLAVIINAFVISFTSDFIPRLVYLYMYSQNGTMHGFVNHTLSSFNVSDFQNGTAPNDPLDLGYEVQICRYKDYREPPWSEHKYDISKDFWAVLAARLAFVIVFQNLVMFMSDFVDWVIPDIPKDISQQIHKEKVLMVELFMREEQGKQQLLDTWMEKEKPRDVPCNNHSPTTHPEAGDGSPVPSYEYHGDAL
Assay: Inside-out patch recording of 1PBC block, mutant I636A
Assay type: cell-based
Settings: I636A; V 40 mV
Measured Metric: IC50 (µM)
Number in µM, nothing else.

Q: Item under review: N#Cc1c(C(F)(F)F)cc(O)n2c1nc1ccccc12 . Reported IC50?
A: 4.65

Data provenance is paper PMC9120017.
